# SYSTEM NAME: membrane receptors of rat pituitary (Rattus norvegicus)
# Construct: membrane receptors of rat pituitary; from tissue; host or cells: rat pituitary membranes
# Sequence (P30969 1-327): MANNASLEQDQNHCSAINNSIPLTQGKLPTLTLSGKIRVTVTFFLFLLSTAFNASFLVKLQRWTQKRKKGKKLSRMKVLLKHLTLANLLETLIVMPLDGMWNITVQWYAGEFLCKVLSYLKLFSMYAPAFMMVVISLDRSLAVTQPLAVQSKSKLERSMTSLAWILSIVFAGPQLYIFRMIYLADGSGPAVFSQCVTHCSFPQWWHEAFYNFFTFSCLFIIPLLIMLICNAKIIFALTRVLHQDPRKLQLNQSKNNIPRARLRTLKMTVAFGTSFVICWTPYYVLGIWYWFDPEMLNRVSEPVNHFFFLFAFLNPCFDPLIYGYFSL
# TEST SUMMARY: Receptor binding to rat pituitary membranes with 125I-labeled [D-Trp6]LHRH
# REPORTED CONDITIONS: Table 1, agonistic analogues; high affinity binding sites; pituitary of male rats; ¹²⁵l-labeled [D-Trp⁶]LHRH
List of Binding affinity, Ka1, for membrane receptors of pituitary values.
Record the value in nM⁻¹, omitting the unit from your answer.

Example entries and their recorded answers appear below.
pGlu-His-Trp-Ser-Tyr-D-Lys[(Cu⁺⁺)(POLP)₂(DL-A₂bu)]-Leu-Arg-Pro-Gly-NH₂ [Example XVI]
9.751
pGlu-His-Trp-Ser-Tyr-D-Lys[Cu⁺⁺)(POLP) ₂(A₂pr)]-Leu-Arg-Pro-Gly-NH₂ [XIX]
8.676
pGlu-His-Trp-Ser-Tyr-D-Lys [(Ni⁺⁺)(CISAL)₂(D-A₂pr)]-Leu-Arg-Pro-Gly-NH₂ [Example X]
4.513
pGlu-His-Trp-Ser-Tyr-D-Lys[(Ni⁺⁺)(SAL)₂(D-A₂pr)]-Leu-Arg-Pro-Gly-NH₂ [VIIIB]
6.457
pGlu-His-Trp-Ser-Tyr-D-Lys[Cu⁺⁺) POL)₂(DL-A₂pr)]-Leu-Arg-Pro-Gly-NH₂ [XVIII]
5.817
pGlu-His-Trp-Ser-Tyr-D-Lys[(Cu⁺⁺)(SAL) ₂(A₂pr)]-Leu-Arg-Pro-Gly-NH₂ [Example VII]
7.968

Query string: Which Binding affinity, Ka1, for membrane receptors of pituitary reading was recorded for the substance pGlu-His-Trp-Ser-Tyr-D-Lys[(Cu⁺⁺)(POL)₂(DL-A₂bu)]-Leu-Arg-Pro-Gly-NH₂ [XXV] ?
Result string: 6.405

###

# SYSTEM NAME: membrane receptors of rat pituitary (Rattus norvegicus, UniProt P30969)
# Construct: membrane receptors of rat pituitary; from tissue; host or cells: rat pituitary membranes
# TEST SUMMARY: Receptor binding to rat pituitary membranes with 125I-labeled [D-Trp6]LHRH
# REPORTED CONDITIONS: Table 2, antagonistic analogues; high affinity binding sites; pituitary of male rats; ¹²⁵l-labeled [D-Trp⁶]LHRH
PARAMETER MEASURED: Binding affinity, Ka1, for membrane receptors of pituitary

Query string: Requested read-out: Binding affinity, Ka1, for membrane receptors of pituitary. Entry: Ac-D-Nal(2)D-Phe(4Cl)-D-Pal(3)-Ser-Arg-D-Lys[(Ni⁺⁺)(SAL)₂(DL-A₂pr)]-Leu-Arg-Pro-D-Ala-NH₂ [XIII]
Result string: 1.821 nM-¹

Query string: Try this substance too: Ac-D-Nal(2)-D-Phe(4Cl)-D-Trp-Ser-Arg-D-Lys[(Ni⁺⁺)(SAL)₂(DL-A₂pr)]-Leu-Arg-Pro-D-Ala-NH₂ [Example XV]
Result string: 8.676 nM-¹

Query string: Can you handle Ac-D-Nal(2)-D-Phe(4Cl)-D-Pal(3)-Ser-Arg-D-Mel-Leu-Arg-Pro-D-Ala-NH₂ [Example II] next?
Result string: 7.190 nM-¹

Query string: Same thing, different substance: Ac-D-Nal(2)-D-Phe(4Cl)-D-Pal(3)-Ser-Arg-D-Lys[(Cu⁺⁺)(POL)₂(DL-A₂pr)]-Leu-Arg-Pro-D-Ala-NH₂ [XXIV]
Result string: 5.483 nM-¹

Query string: Same question for Ac-D-Nal(2)-D-Phe(4Cl)-D-Pal(3)-Ser-Arg-D-Lys[(Cu⁺⁺)(POLP)₂(DL-A₂pr)]-Leu-Arg-Pro-D-Ala-NH₂ [Example XX] please.
Result string: 5.250 nM-¹

Query string: Ok, now Ac-D-Nal(2)-D-Phe(4Cl)-D-Trp-Ser-Arg-D-Lys[(Cu⁺⁺)(POLP)₂(DL-A₂pr)]-Leu-Arg-Pro-D-Ala-NH₂ [Example XXII]
Result string: 2.901 nM-¹

Query string: Now try Ac-D-Nal(2)-D-Phe(4Cl)-D-Trp-Ser-Arg-D-Lys[(Cu⁺⁺)(SAL)₂(DL-A₂pr)]-Leu-Arg-Pro-D-Ala-NH₂ [XII] .
Result string: 9.183 nM-¹

Query string: Can you handle Ac-D-Nal(2)-D-Phe(4Cl)-D-Trp-Ser-Arg-D-Lys[(Cu⁺⁺) (POL)₂(DL-A₂pr)]-Leu-Arg-Pro-D-Ala-NH₂ [Example XXIII] next?
Result string: 7.622 nM-¹

###

# SYSTEM NAME: membrane receptors of rat pituitary (Rattus norvegicus)
# Construct: membrane receptors of rat pituitary; from tissue; host or cells: rat pituitary membranes
# TEST SUMMARY: Receptor binding to rat pituitary membranes with 125I-labeled [D-Trp6]LHRH
# REPORTED CONDITIONS: Table 1, agonistic analogues; high affinity binding sites; pituitary of male rats; ¹²⁵l-labeled [D-Trp⁶]LHRH
Threshold-based label: Binding affinity, Ka1, for membrane receptors of pituitary under 6 nM⁻¹ gives y, Binding affinity, Ka1, for membrane receptors of pituitary not under 6 nM⁻¹ gives n.

Check out these entries, answers already filled in.
pGlu-His-Trp-Ser-Tyr-D-Lys[(Cu⁺⁺)(SAL) 2(A₂pr)]-Leu-Arg-Pro-Gly-NH₂ [VIA]
y
pGlu-His-Trp-Ser-Tyr-D-Lys[(Cu⁺⁺)(FUR)₂(DL-A₂pr)]-Leu-Arg-Pro-Gly-NH₂ [XVII]
y
pGlu-His-Trp-Ser-Tyr-D-Lys[(Cu⁺⁺)(SAL)₂(DL-A₂bu)]-Leu-Arg-Pro-Gly-NH₂ [XIV]
y
pGlu-His-Trp-Ser-Tyr-D-Lys[(Cu⁺⁺)(PEN) ₂(A₂pr)]-Leu-Arg-Pro-Gly-NH₂ [Example XXI]
n
pGlu-His-Trp-Ser-Tyr-D-Lys[(Cu²²)(CISAL)₂(DL-A₂pr)]-Leu-Arg-Pro-Gly-NH₂ [Example IX]
n

Query string: Check if Binding affinity, Ka1, for membrane receptors of pituitary falls below 6 nM⁻¹ for pGlu-His-Trp-Ser-Tyr-D-Lys[(PtCl₂)(DL-A₂pr)]-Leu-Arg-Pro-Gly-NH₂ [Example III] .
Result string: y

Query string: And what about the substance pGlu-His-Trp-Ser-Tyr-D-Lys[(Ni⁺⁺)(SAL) 2(A₂pr)]-Leu-Arg-Pro-Gly-NH₂ [VIIIA] ?
Result string: n

###

# SYSTEM NAME: membrane receptors of human breast cancer cells (Homo sapiens, UniProt P30968)
# Construct: human prostate and breast cancer cell membranes; endogenous in cells
# Sequence (P30968 whole entry): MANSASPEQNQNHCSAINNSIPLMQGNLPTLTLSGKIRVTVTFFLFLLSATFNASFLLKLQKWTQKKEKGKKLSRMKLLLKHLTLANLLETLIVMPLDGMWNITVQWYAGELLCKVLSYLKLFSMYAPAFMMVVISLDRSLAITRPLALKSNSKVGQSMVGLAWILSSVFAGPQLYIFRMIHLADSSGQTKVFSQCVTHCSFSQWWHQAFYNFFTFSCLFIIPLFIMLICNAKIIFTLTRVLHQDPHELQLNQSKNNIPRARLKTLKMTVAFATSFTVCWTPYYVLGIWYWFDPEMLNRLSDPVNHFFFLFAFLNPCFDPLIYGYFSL
# TEST SUMMARY: Receptor binding to human breast cancer cell membranes with 125I-labeled [D-Trp6]LHRH
# REPORTED CONDITIONS: Table 2, antagonistic analogues, high affinity binding sites, ¹²⁵l-labeled [D-Trp⁶]LHRH
PARAMETER MEASURED: Binding affinity, Ka1, for membrane receptors of cancer cells

Use the examples below as a reference point.
Ac-D-Nal(2)-D-Phe(4Cl)-D-Trp-Ser-Arg-D-Lys[(Ni⁺⁺)(SAL)₂(DL-A₂pr)]-Leu-Arg-Pro-D-Ala-NH₂ [Example XV]
4.418 nM-¹
Ac-D-Nal(2)-D-Phe(4Cl)-D-Trp-Ser-Arg-D-Lys[(Cu⁺⁺)(SAL)₂(DL-A₂pr)]-Leu-Arg-Pro-D-Ala-NH₂ [XII]
4.951 nM-¹
Ac-D-Nal(2)-D-Phe(4Cl)-D-Pal(3)-Ser-Arg-D-Lys[(PtCl₂)-A₂bu-Eac)]-Leu-Arg-Pro-D-Ala-NH₂ [XXVII]
2.152 nM-¹
Ac-D-Nal(2)-D-Phe(4Cl)-D-Trp-Ser-Arg-D-Lys[(Cu⁺⁺) (POL)₂(DL-A₂pr)]-Leu-Arg-Pro-D-Ala-NH₂ [Example XXIII]
3.408 nM-¹
Ac-D-Nal(2)-D-Phe(4Cl)-D-Pal(3)-Ser-Arg-D-Lys[(Cu⁺⁺)(POL)₂(DL-A₂pr)]-Leu-Arg-Pro-D-Ala-NH₂ [XXIV]
2.628 nM-¹
Ac-D-Nal(2)-D-Phe(4Cl)-D-Trp-Ser-Arg-D-Lys[(Cu⁺⁺)(POLP)₂(DL-A₂pr)]-Leu-Arg-Pro-D-Ala-NH₂ [Example XXII]
1.337 nM-¹
Ac-D-Nal(2)-D-Phe(4Cl)-D-Pal(3)-Ser-Arg-D-Mel-Leu-Arg-Pro-D-Ala-NH₂ [Example II]
3.967 nM-¹
Ac-D-Nal(2)-D-Phe(4Cl)-D-Pal(3)-Ser-Arg-D-Lys[(Cu⁺⁺)(POLP)₂(DL-A₂pr)]-Leu-Arg-Pro-D-Ala-NH₂ [Example XX]
2.436 nM-¹
Ac-D-Nal(2)D-Phe(4Cl)-D-Pal(3)-Ser-Arg-D-Lys[(Ni⁺⁺)(SAL)₂(DL-A₂pr)]-Leu-Arg-Pro-D-Ala-NH₂ [XIII]
0.878 nM-¹

Moving on to the next substance.
Query string: # input substance: Ac-D-Nal(2)-D-Phe(4Cl)-D-Pal(3)-Ser-Arg-D-Lys[(Cu⁺⁺)(SAL)₂(A₂bu-Eac)]-Leu-Arg-Pro-D-Ala-NH₂ [XXVIII] ; wanted: its Binding affinity, Ka1, for membrane receptors of cancer cells
Result string: 0.192 nM-¹
